test system: Bacillus subtilis; experiment: cleaved RNA product abundance (RNA/gDNA barcode ratio) relative to median wild-type variant (ratio to wild type); higher = more accumulation of the downstream cleavage product; conditions: experiment (reporter, strain, medium): exp 6: tetM reporter, strain 168; cleavage site: cggR-gapA (positions -7 to +36 mutated)
Note to self: class labels come from recorded cleaved RNA product abundance, ranges listed here: lower segment (below 0.2), middle segment (0.2 to below 0.8), upper segment (0.8 or more)

{"columns": ["CHAIN", "ASSIGNED LABEL"],
 "data": [
  ["ACAGACGAAGGAGCCGCAAAGAAGTAATTAAGGGATGAATAATCCCTCAATATAAATATCTCTCACTTATTTAAA", "middle segment"],
  ["ACAGACGAAGGAGCCGCAAAGAAGTTGTTAAGGGATGAATAATCCCTCAATATAAATATCTCTCACTTATTTAAA", "middle segment"],
  ["ACAGACGAAGGAGCCGCAAAGAAGTTATTAAGGGATGAATAATTCCTCAATATAAATATCTCTCACTTATTTAAA", "middle segment"],
  ["ACAGACGAAGGAGTCGCAAAGAAGTTATTAAGGGATGAATAATCCCTCAATATAAATATCTCTCACTTATTTAAA", "upper segment"],
  ["ACAGACGAAGGAGCCGCAAATAAGTTATTAAGGGATGAAAAATCCCTCAATATAAATATCTCTCACTTATTTAAA", "upper segment"],
  ["ACAGACGAAGGAGCCGCAAAGAATTTATTAAGTGATGAATAATCCCTCAATATAAATATCTCTCACTTATTTAAA", "lower segment"],
  ["ACAGACGAAGGAGCCGCAAAGAATTTATAAAGGGATGAATAATCCCTCAATATAAATATCTCTCACTTATTTAAA", "middle segment"],
  ["ACAGACGAAGGAGCCGCAAAGAAGTTATTAAGGGATGAATAATCCATTAATATAAATATCTCTCACTTATTTAAA", "upper segment"],
  ["ACAGACGAAGGAGCTGCAAAGAAGTTATTAAGGGATGAATAATCCCTCAATATAAATATCTCTCACTTATTTAAA", "upper segment"],
  ["ACAGACGAAGGAGCCGCAAAGAAGTTATTAAGTGATGAATAATCCCTCAATATAAATATCTCTCACTTATTTAAA", "lower segment"],
  ["ACAGACGAAGGAGCCGCAAAGAAGTTATTAAGGGATGAAAAATCCCTCAATATAAATATCTCTCACTTATTTAAA", "upper segment"],
  ["ACAGACGAAGGAGCCGCAAAGAAATTATTAAGGGATGAATAATCCCTCAATATAAATATCTCTCACTTATTTAAA", "middle segment"],
  ["ACAGACGAAGGAGCCGCAAAGAAGTTATTAAGGGATGAATAATCCCTCAATATATATATCTCTCACTTATTTAAA", "upper segment"],
  ["ACAGACGAAGGAGCCGCAAAGAAGTAATTAATGGATGAATAATCCCTCAATATAAATATCTCTCACTTATTTAAA", "lower segment"],
  ["ACAGACGAAGGAGCCGCAAAGAAGTTCTTAAGGGATGAATAATCCCTCAATATAAATATCTCTCACTTATTTAAA", "middle segment"],
  ["ACAGACGAAGGAGCCTCAAAGAAGTTATTAAGGGATGAATAATCCCTCAATATAAATATCTCTCACTTATTTAAA", "upper segment"],
  ["ACAGACGAAGGAGCCGCAAAGAAGTTATTAAGGGATGAATAATCGCTCAATATAAATATCTCTCACTTATTTAAA", "lower segment"],
  ["ACAGACGAAGGAGCCGCAAAAAAGTTATTAAGGGATGAATAATCCCTCAATATAAATATCTCTCACTTATTTAAA", "upper segment"],
  ["ACAGACGAAGGAGCCGCAAAGAAGTTATAAAGGGATGAATAATCCCTCAATATAAATATCTCTCACTTATTTAAA", "middle segment"],
  ["ACAGACGAAGGAGCCGCAAATAACTTATTAAGGGATGAATAATCCCTCAATATAAATATCTCTCACTTATTTAAA", "middle segment"],
  ["ACAGACGAAGGAGCCGCAAAGAAGTTATTAAGGGATGAATAATCTCTCAATATAAATATCTCTCACTTATTTAAA", "upper segment"],
  ["ACAGACGAAGGAGCCGCAAAGAAGTTATTAAGGGATGAATAATCCCTCAAAATAAATATCTCTCACTTATTTAAA", "middle segment"],
  ["ACAGACGAAGGAGCCGCAAAGAAGTTATTAAGGGATGAATAATCCCTAAATATAAATATCTCTCACTTATTTAAA", "middle segment"],
  ["ACAGACGAAGGAGCCGCAACGAAGTTATTAAGGGATGAATAATCCCTCAATATAAATATCTCTCACTTATTTAAA", "middle segment"],
  ["ACAGACGAAGGAGCCGCAAAGAAGTTATTAAGGGATGAATAATCCCTCAATATGAATATCTCTCACTTATTTAAA", "lower segment"],
  ["ACAGACGAAGGAGCCGTAAAGAAGTTATTAAGGCATGAATAATCCCTCAATATAAATATCTCTCACTTATTTAAA", "lower segment"],
  ["ACAGACGAAGGAGCCGCAAAGAAGTTATTTAGGGATGAATAATCCCTCAATATAAATATCTCTCACTTATTTAAA", "middle segment"],
  ["ACAGACGAAGGAGCCGCAAAGAAGTTATTAAGGGATAAATAATCCCTCAATAAAAATATCTCTCACTTATTTAAA", "lower segment"],
  ["ACAGACGAAGGAGCCGCAAAGAAGTTTTTAACGGATGAATAATCCCTCAATATAAATATCTCTCACTTATTTAAA", "lower segment"]
]}
